test: HCV genotype 1a replicon assay, CC50 by calcein AM (Biological Example 8); settings: human, Huh-7 cells carrying an HCV genotype 1a replicon
So I've got a bunch of molecules here, and I need their CC50 at 3 days values.

### Prompt # lookup: CC50 at 3 days of NC(=O)c1ncn([C@@H]2O[C@H](CO)[C@@H](O)[C@H]2O)n1 [Ribavirin, reference compound]
### Response > 88.8 µM

### Prompt // CC50 at 3 days lookup, key: `Fc1ccccc1-c1nc2ccn(Cc3ccc(-c4ccc(C(F)(F)F)cc4C(F)(F)F)nn3)cc-2n1`
### Response > 44.4 µM

### Prompt # query: CC50 at 3 days of entry `CC1=CC[C@H](C(=O)N(c2cc(C#CC(C)(C)C)sc2C(=O)O)[C@H]2CC[C@](O)(CO[C@H]3CCOC3)CC2)CC1`
### Response > 44.4 µM

### Prompt Returns the measured CC50 at 3 days for the input molecule. Input: `CC[C@@H]1C[C@]1(NC(=O)[C@@H]1C[C@@H](Oc2cc(-c3csc(NC(C)C)n3)nc3c(Cl)c(OCCN4CCOCC4)ccc23)CN1C(=O)[C@@H](NC(=O)O[C@@H]1C[C@@H]2C[C@@H]2C1)C(C)(C)C)C(=O)O`
### Response > 22.2 µM

### Prompt What value of measured CC50 at 3 days is listed for `COC(=O)N[C@H](C(=O)N1CC2(CC2)C[C@H]1c1ncc(-c2ccc3c(c2)C(F)(F)c2cc(-c4ccc5nc([C@@H]6[C@H]7CC[C@H](C7)N6C(=O)[C@@H](NC(=O)OC)C(C)C)[nH]c5c4)ccc2-3)[nH]1)C(C)C` ?
### Response > 44.4 µM

### Prompt Given `CC(C)OC(=O)[C@H](C)N[P@](=O)(OC[C@H]1O[C@@H](n2ccc(=O)[nH]c2=O)[C@](C)(F)[C@@H]1O)Oc1ccccc1` , state its recorded CC50 at 3 days.
### Response > 82.4 µM
